Source of measurements: the supplement of paper PMC7877785

Here, each record is paired with measured self-splicing fitness (ln) data.
test: self-splicing fitness, log relative to wild type (ln ratio); higher = more splicing; Tetrahymena group I intron in knt gene, E. coli kanamycin selection, DiMSum; sequences stand for … in CUCUCU…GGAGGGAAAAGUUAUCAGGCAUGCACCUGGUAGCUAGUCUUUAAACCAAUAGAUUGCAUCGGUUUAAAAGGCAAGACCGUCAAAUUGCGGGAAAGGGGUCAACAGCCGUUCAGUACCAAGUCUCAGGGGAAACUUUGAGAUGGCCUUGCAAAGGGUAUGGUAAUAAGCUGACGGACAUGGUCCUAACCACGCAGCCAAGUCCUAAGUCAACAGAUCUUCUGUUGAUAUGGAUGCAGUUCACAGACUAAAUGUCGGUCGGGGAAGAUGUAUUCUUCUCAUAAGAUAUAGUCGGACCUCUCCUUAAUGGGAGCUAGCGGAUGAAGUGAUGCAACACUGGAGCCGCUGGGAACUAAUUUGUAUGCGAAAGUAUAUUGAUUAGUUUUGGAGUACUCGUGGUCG; conditions: 30 °C;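 note: selection with 25 µg/mL kanamycin versus none on LB agar overnight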
observable: self-splicing fitness (ln)

{"columns": ["sequenceString", "valueReported"],
 "data": [
  ["CCUGAGCAAUAUUACGCAUA", -3.03],
  ["CUCGAGCAAUAUUACGCGGG", -3.9],
  ["CGAGAGCAAUAUUACGACUG", -1.29],
  ["GCAGAGCAAUAUUACGUGAU", -2.24],
  ["CAGAAGCAAUAUUACGUUAG", -0.919],
  ["UUUAAGCAAUAUUACGCUGA", -2.47],
  ["AGGAAGCAAUAUUACGGCCU", -2.44],
  ["ACACAGCAAUAUUACGCCCG", -0.876],
  ["AUAAAGCAAUAUUACGCAAU", -0.8],
  ["ACAGAGCAAUAUUACGUUGC", -2.78],
  ["GUGGAGCAAUAUUACGUAGC", 0.305],
  ["UGACAGCAAUAUUACGGAGA", -3.83],
  ["UUGUAGCAAUAUUACGGCCU", -0.844],
  ["GUGAAGCAAUAUUACGUUUC", -3.08],
  ["CCGAAGCAAUAUUACGGGCU", -4.21],
  ["CACGAGCAAUAUUACGACAC", -2.84],
  ["CCCGAGCAAUAUUACGAGUG", -3.04],
  ["CUUAAGCAAUAUUACGCCAA", -2.46],
  ["GAACAGCAAUAUUACGUCUG", -2.54],
  ["UCACAGCAAUAUUACGUGAG", -0.886],
  ["GCGCAGCAAUAUUACGGUCG", -2.26],
  ["CGAAAGCAAUAUUACGCUGG", -1.66],
  ["AAAUAGCAAUAUUACGUCUA", -0.412],
  ["ACAGAGCAAUAUUACGGAGU", -3.05],
  ["CUGUAGCAAUAUUACGAGGC", -3.31],
  ["AGUUAGCAAUAUUACGUUCG", -1.26],
  ["CUUUAGCAAUAUUACGAGUG", -0.24],
  ["UUCUAGCAAUAUUACGCAAG", -2.26],
  ["CUCAAGCAAUAUUACGAAGU", -3.75],
  ["UAGGAGCAAUAUUACGUGGG", -3.17],
  ["ACAAAGCAAUAUUACGUGUA", -2.6],
  ["GCAGAGCAAUAUUACGAUGA", -1.42],
  ["UAACAGCAAUAUUACGGAUG", -1.51],
  ["CGCUAGCAAUAUUACGCUCA", -2.4]
]}
